Source listed as patent US20160215065A1.

Biological target: T1, mouse active NSP4 (mA) (mouse, UniProt Q14B24 36-284)
T1 construct: mature; also called mA-NSP4; mA (NSP4)
T1 sequence (looked up): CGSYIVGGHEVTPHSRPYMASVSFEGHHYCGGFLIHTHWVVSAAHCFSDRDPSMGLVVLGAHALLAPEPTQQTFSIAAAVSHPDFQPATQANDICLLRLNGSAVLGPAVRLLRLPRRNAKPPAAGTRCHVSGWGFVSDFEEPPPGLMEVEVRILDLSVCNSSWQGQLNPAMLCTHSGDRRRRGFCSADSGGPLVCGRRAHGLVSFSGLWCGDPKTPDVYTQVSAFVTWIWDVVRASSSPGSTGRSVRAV
Experiment: BLI affinity class in summary table

BINDER	Kd
anti-NSP4 antibody 3-2 (antibody, human IgG1, V domains shown, also called Ab 3-2; clone 3-2) VH: EVQLVESGGGLVQPGGSLRLSCAASGFTFSDYSISWVRQAPGKGLEWVGEINPAGGATYYADSVKGRFTISADTSKNTAYLQMNSLRAEDTAVYYCARGDFPFWSDAYYVMDYWGQGTLVTVSS VL: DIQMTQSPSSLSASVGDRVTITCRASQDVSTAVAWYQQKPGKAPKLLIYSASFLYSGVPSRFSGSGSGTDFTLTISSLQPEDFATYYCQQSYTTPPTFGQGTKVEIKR	< 50 nM
